Cited source for all entries: patent US11850244B2

# Assay details: Antimuscarinic screen in rat bladder perfusion model (plasma, urine and tissue drug levels)
# Condition description: rat, in vivo
# Text: The drugs were perfused at varying rates, concentrations, and times. Serial blood and urine samples were taken, and tissues (bladder, ureter, kidney, and prostate) were sampled to determine drug levels and distribution. Tissue histological exams were completed for safety.
Metric name: Cmax

>  <Compound>
O=C(O[C@H]1C[C@H]2CC[C@@H](C1)[N+]21CCCC1)C(O)(c1ccccc1)c1ccccc1 [Trospium, trospium chloride]

>  <Result>
0.06 to 0.7 ng/mL

$$$$
